B1: KLHL14 (parent)
chain: CAVLDDSIYLVGGYSWSMGAYKSS

variants of: B1; assay: protein stability index of a GFP-peptide fusion (GPS, HEK-293T) (PSI 1-6); higher = more stable; conditions: c terminus: a fixed tail appended;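 further: lentivirally expressed fusions sorted by FACS into six bins by GFP to DsRed ratio, PSI derived from sequencing read proportions per bin multiplied by bin number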
The entries below are paired with their reported protein stability index.

A20Y; 2.9
V11C; 1.91
S24Y; 3.04

-- ask If you can, please state the reported protein stability index value of `W16E` .
-- reply 2.53

-- ask And for `G19F` ?
-- reply 3.41

-- ask And for `I8G` ?
-- reply 1.22

-- ask And for `Y9M` ?
-- reply 3.37

-- ask And for `L4C` ?
-- reply 1.78
